Quick reference: PBM E-score of the listed items.
experimental system: Yer064c (UniProt P40041)
Sequence: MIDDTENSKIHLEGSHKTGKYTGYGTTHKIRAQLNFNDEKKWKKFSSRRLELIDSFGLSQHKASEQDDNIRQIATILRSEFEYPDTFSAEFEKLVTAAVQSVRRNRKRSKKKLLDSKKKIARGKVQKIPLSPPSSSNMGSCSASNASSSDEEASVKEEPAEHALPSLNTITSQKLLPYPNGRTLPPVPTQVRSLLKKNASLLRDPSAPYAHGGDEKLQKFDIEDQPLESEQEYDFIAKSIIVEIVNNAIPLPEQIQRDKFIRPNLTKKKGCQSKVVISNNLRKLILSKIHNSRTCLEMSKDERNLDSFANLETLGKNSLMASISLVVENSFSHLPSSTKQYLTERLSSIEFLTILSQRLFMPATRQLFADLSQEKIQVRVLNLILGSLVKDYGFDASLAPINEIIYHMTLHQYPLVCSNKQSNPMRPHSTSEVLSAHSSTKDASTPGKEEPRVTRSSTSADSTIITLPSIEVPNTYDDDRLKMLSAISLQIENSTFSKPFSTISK
assay remarks: PBM E-score (8-mer binding enrichment) (E-score (-0.5 to 0.5)); higher = stronger / more preferred TF binding
measurement conditions: protein concentration: 200 nM; construct: GST-full length
Over roughly 33,000 sequences, “E-score (-0.5 to 0.5)” has its median near -0.036; the highest 2% begin near 0.37. The full list was thinned out, with the highest values kept by preference.
Lab note: write the figure by itself, no unit.

CCCCGCTA -0.209
TACGACGA 0.071
CAGTAAAG 0.0694

# input Value lookup for PBM E-score; key = `CACGACGC`
# output -0.163

# input Value lookup for PBM E-score; key = `AGAGTCAT`
# output 0.492

====

experimental system: Yer064c (UniProt P40041)
Sequence: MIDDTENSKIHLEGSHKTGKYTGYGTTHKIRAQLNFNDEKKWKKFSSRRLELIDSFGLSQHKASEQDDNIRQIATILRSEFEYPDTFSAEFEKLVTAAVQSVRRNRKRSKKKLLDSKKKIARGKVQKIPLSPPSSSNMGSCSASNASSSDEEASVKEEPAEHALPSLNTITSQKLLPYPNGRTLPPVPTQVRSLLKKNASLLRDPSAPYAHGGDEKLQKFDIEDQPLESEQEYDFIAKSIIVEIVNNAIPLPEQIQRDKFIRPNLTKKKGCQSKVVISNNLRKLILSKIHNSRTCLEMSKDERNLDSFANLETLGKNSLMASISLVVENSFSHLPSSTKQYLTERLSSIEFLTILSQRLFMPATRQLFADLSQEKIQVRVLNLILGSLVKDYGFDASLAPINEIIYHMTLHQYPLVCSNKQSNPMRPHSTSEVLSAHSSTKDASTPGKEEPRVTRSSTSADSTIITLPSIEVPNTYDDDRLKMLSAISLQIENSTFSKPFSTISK
assay remarks: PBM E-score (8-mer binding enrichment) (E-score (-0.5 to 0.5)); higher = stronger / more preferred TF binding
measurement conditions: protein concentration: 200 nM; construct: GST-full length
In all, about 33,000 sequences were measured (“E-score (-0.5 to 0.5)”: median about -0.036, highest 2% from about 0.37 on). This excerpt belongs to a sample that is enriched for the highest values.
# label = bin(measured PBM E-score), where bins are I (below -0.02), II (-0.02 to below 0.2), III (0.2 or more)

Here are 8 sequences together with their reported answers.
AAGTACTC III
CAGTACTC III
CGAGAATA I
CCCCTGAC II
GATTCGAA III
AGCAGGTA I
CCTAATCA III
AAGTCATG III

# input Band of `ACGTTGAG` ?
# output II

# input Band of `CGAGTCAC` ?
# output III

# input Band of `GGCAACTA` ?
# output I

====

experimental system: Yer064c (UniProt P40041)
Sequence: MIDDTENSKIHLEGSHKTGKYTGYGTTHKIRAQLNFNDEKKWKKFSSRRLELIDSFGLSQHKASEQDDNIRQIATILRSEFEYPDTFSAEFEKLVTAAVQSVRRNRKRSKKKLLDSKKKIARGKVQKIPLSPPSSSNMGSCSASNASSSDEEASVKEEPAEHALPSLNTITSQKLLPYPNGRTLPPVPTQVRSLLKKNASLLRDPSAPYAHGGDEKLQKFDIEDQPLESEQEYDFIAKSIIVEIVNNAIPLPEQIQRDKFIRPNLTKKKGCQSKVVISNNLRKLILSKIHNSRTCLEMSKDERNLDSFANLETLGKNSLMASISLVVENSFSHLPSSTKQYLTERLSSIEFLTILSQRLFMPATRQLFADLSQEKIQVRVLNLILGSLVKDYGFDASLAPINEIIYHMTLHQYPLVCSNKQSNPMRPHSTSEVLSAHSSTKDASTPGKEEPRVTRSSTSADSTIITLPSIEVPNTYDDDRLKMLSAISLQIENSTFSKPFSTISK
assay remarks: PBM E-score (8-mer binding enrichment) (E-score (-0.5 to 0.5)); higher = stronger / more preferred TF binding
measurement conditions: protein concentration: 200 nM; construct: GST-full length
The full ranking holds about 33,000 sequences; the median of “E-score (-0.5 to 0.5)” is about -0.036, and the highest 2% start at about 0.37. This is one part of a sample in which the highest values are shown more often than they occur.
Quick reference: PBM E-score of the listed items.
Lab note: write the figure by itself, no unit.

Known results for sequences:
CGGAATCA 0.392
AGGAATCG 0.235
ATTTTCAG -0.135
CTACTTTC 0.0258
ATGCAACC -0.254
GCTACGAA -0.0422

# input Value lookup for PBM E-score; key = `GAGACAGC`
# output 0.136

# input Value lookup for PBM E-score; key = `CACCTAGG`
# output 0.0188

# input Value lookup for PBM E-score; key = `CTCTAGGA`
# output 0.0144

# input Value lookup for PBM E-score; key = `GCGGAACA`
# output 0.0307

# input Value lookup for PBM E-score; key = `GTCACAAC`
# output 0.213

# input Value lookup for PBM E-score; key = `AGACAGCC`
# output -0.181

# input Value lookup for PBM E-score; key = `AGGAATCA`
# output 0.429

# input Value lookup for PBM E-score; key = `CTTGGGAA`
# output 0.0531

# input Value lookup for PBM E-score; key = `CGGAATCC`
# output -0.0704

# input Value lookup for PBM E-score; key = `AGCAGAGC`
# output -0.137

# input Value lookup for PBM E-score; key = `AGCAGAAA`
# output -0.0226

# input Value lookup for PBM E-score; key = `GGGCCCGA`
# output -0.142

# input Value lookup for PBM E-score; key = `CCGTAATA`
# output 0.0217

# input Value lookup for PBM E-score; key = `CGTTATCC`
# output -0.11

# input Value lookup for PBM E-score; key = `GTTGGTGA`
# output 0.115

# input Value lookup for PBM E-score; key = `ACCCCAAT`
# output -0.114

====

experimental system: Yer064c (UniProt P40041)
Sequence: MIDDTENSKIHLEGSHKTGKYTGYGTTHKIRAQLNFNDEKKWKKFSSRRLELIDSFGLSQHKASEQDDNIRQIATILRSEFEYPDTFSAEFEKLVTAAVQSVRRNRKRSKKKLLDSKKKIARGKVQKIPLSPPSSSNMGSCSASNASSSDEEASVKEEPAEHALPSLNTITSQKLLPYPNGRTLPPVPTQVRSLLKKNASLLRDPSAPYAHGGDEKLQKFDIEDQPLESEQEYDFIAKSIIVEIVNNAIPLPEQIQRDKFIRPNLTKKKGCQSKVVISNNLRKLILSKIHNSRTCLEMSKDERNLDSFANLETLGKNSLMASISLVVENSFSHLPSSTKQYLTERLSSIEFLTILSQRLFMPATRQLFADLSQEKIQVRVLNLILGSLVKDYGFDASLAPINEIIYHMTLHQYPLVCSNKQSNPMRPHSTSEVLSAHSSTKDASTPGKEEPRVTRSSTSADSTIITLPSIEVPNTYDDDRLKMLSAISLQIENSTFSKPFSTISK
assay remarks: PBM E-score (8-mer binding enrichment) (E-score (-0.5 to 0.5)); higher = stronger / more preferred TF binding
measurement conditions: protein concentration: 200 nM; construct: GST-full length
In all, about 33,000 sequences were measured (“E-score (-0.5 to 0.5)”: median about -0.036, highest 2% from about 0.37 on). Shown is part of a subset that was picked to be rich in the highest values.
Note to self: values exactly at 0.2 are Yes. So PBM E-score at or above 0.2 is Yes, below is No.

Here are 4 sequences together with their reported answers.
ACGACTCT Yes
AAGAATAG No
GGTTGGGA No
ACGACTTA Yes

# input Is PBM E-score for `GCGACTGA` at or above 0.2?
# output Yes

# input Is PBM E-score for `GGTCGTGA` at or above 0.2?
# output No

# input Is PBM E-score for `AAAGTCCC` at or above 0.2?
# output No

# input Is PBM E-score for `AAACTAAA` at or above 0.2?
# output No
